Test system: RPMI-8226 leukemia
Assay: NCI-60 one-dose screen, 48 h (100 = growth as untreated, 0 = no growth, -100 = all killed)
Settings: 10 µM unless noted
This is part of a sample that, as a whole, favours compounds with a hit. Of some 83,000 tested, about 20% had one in any assay.
quantity_measured: growth (%)
State the answer as a number, implicitly in %.

What value of growth has been recorded for this entry: Nc1ccc2c(c1)C(=O)NC2=O
84.1

Form field: reported growth of CC(C)(C)n1cc(-c2ccnc(NCCNS(=O)(=O)c3ccccc3)c2)c(-c2cccc(O)c2)n1
22.2

Reported growth, molecule COc1cc(C2CC(=O)Nc3c2cnn3Cc2ccco2)cc2c1OCCO2 (centres undefined) : ____
77.2

Recorded growth for CN1CCN(Cc2ccc(NC(=O)c3[nH]ncc3Nc3ncnc4[nH]ccc34)cc2)CC1 , please?
-10.4

Recorded growth for C=CCSc1nnc(-c2ccc(C(C)(C)C)cc2)n1-c1cccc(C(F)(F)F)c1 , please?
17.4

Entry under review: COc1cc(OC)c(/C=C/S(=O)(=O)Cc2ccc(OC)c(N)n2)c(OC)c1 . Reported growth?
33.1

Item under review: O=C(O)c1ccc2c(c1Sc1ccccc1)C(=O)c1ccccc1C2=O . Reported growth?
106

Fill in the blank: the reported growth of O=c1c2cccc3c(Nc4ccccn4)ccc(c32)c2nc3ccccc3n12 is ____.
49

Could you tell me which growth is on file for O=C1c2cccnc2C(=O)c2c1c(C(=O)OCCN1CCCCC1)c1ccccn21 ?
-29.9

---

Tested on: UO-31 renal
Assay: NCI-60 one-dose screen, 48 h (100 = growth as untreated, 0 = no growth, -100 = all killed)
Conditions: 10 µM unless noted
About 83,000 compounds went through this panel and 20% of them were active in at least one assay; those are over-represented in the sample as a whole.
For each entry below, report its growth value.
Numbers only here, please. The scale is %.

Please report the recorded growth for CC/C(Cc1ccccc1)=C(\c1ccc(OCCN2CCCC2)cc1)c1ccc(OC(C)=O)cc1 .
72.3

Dear colleague, I am looking for the recorded growth of the following compound: COc1cccc(/C=C\C(=O)c2ccccc2)c1
60.2

Item COC(=S)SCN(CSC(=S)OC)c1ccc(Cl)cc1 has what recorded growth?
66.5

Can you look up the measured growth of O=c1c2c3c(sc2n2c(CCl)nnc2n1Cc1ccccc1)CCCC3 for me?
-83.2

Given the entry COc1ccc(C(=O)c2sc3nc(-c4ccccc4OC)ccc3c2N)cc1OC , report its measured growth.
53.4

Using the record for Cc1cc(OCc2ccc(C(F)(F)F)cc2)c2c(c1)C(=O)C=C(NCCN1CCCC1)C2=O , report its growth.
53.8

Give its growth value. Item: COc1ccccc1N1CCN(CCn2c(=O)c3c(c4ccccc4n3C)n(C)c2=O)CC1
77.6

Request the reported growth associated with Cc1cc(Nc2nc(N3CCOCC3)nc3ccccc23)n[nH]1
35.4

Value lookup for growth; key = O=[N+]([O-])c1cccc(-c2nc3sccn3c2-c2ccnc(NCCCNS(=O)(=O)c3ccc(Br)cc3)n2)c1
22.7

// lookup growth for O=C1c2cccnc2C(=O)c2c1c(C(=O)OCCN1CCCCC1)c1ccccn21
-12.7

// lookup growth for Nc1cc(O)cc2cccnc12
48.1

---

For each record, write down the corresponding growth.
System: SK-MEL-2 melanoma
Test: NCI-60 one-dose screen, 48 h (100 = growth as untreated, 0 = no growth, -100 = all killed)
Conditions: 10 µM unless noted
About 83,000 compounds went through this panel and 20% of them were active in at least one assay; those are over-represented in the sample as a whole.
Expressed in %, but write only the number.

Entry CN(C)c1ccc(C2Nc3ccccc3-n3cccc32)cc1 (stereo not given) : reported growth = ?
118

Find the recorded growth belonging to O=[N+]([O-])c1cccc(-c2nc3sccn3c2-c2ccnc(NCCCNS(=O)(=O)c3ccc(F)cc3)n2)c1 and report it.
-15.9

I'd like to know its growth. The molecule in question is CCCCCCCCCc1cc(CN2CCCCC2)c(O)c(CN2CCCCC2)c1
86.7

# lookup: growth of O=C1Nc2ccccc2/C1=C/C(=N/c1nnc(-c2ccccc2)s1)c1ccccc1
97.4

I would be grateful if you could share the reported growth for OC(c1cccc(C(F)(F)F)c1)c1cnccc1NC1CCCCCC1 (stereo not given) .
43

---

Tested on: SF-268 CNS
Experiment: NCI-60 one-dose screen, 48 h
Conditions: 10 µM unless noted
The panel holds about 83,000 compounds, 20% with a hit somewhere; the sample as a whole holds those more often. Active and inactive are the calls of the source. The calls were made as follows: active = growth percent below 10; inactive = the rest.
Please answer using one outcome listed in 1 (active), -1 (inactive)

Can you look up the reported call for Nc1ccc2c(c1)C(=O)NC2=O for me?
-1

Hi, sorry to bother you, what did the test record for CCCCCCCCCCCCCCCCNCCC[C@@H](C)[C@H]1CC[C@H]2[C@@H]3[C@H](OCCCN)C[C@@H]4C[C@H](OCCCN)CC[C@]4(C)[C@H]3C[C@H](OCCCN)[C@]12C ?
1

Outcome logged for CN1CCN(Cc2ccc(NC(=O)c3cncc(C#Cc4cnc(N)c5cccnc45)c3)cc2C(F)(F)F)CC1 in this assay:
-1

Dear colleague, could you share the recorded outcome for CC/C=C\C[C@H](F)C/C=C1/C(=O)C=C[C@@H]1C/C=C\CCCC(=O)O when you have a moment?
-1

Tell me the assay call for CCn1cc2c(cc1=O)-c1nc3ccccc3c3ccnc(c13)C2=O please.
-1

Status in this test for CC(C)[C@H]1COC(=O)N1[C@@H]1C(=O)N([C@@H](CCC(=O)N2CCN(C3CCCC3)CC2)C(=O)N[C@@H]2CCCc3ccccc32)[C@@H]1/C=C/c1cccc(Br)c1 ?
1

Which outcome did this test record for the compound O=C1C=CC(=O)N1c1ccc(Cc2ccc(N3C(=O)C=CC3=O)cc2)cc1 ?
-1

Per the records of this test, what outcome belongs to CC#CC#Cc1cccc(=O)o1 ?
-1

---

System: HCT-116 colon
Assay: NCI-60 one-dose screen, 48 h
Details: 10 µM unless noted
This is part of a sample that, as a whole, favours compounds with a hit. Of some 83,000 tested, about 20% had one in any assay. Calls of active or inactive are those of the source. How the source made its calls: active means growth percent below 10; inactive means the rest.
Field 'call' accepts YES (active), NO (inactive)

Test call, this compound: O=C1C(=O)N(CCCCn2cc(CO)nn2)c2ccccc21
NO

Could you kindly confirm the outcome this assay logged for O=c1[nH]c(-c2ccccn2)nc2sc3c(c12)CCCCC3 ?
NO

For CC1=NNC(=O)C1C (configuration not stated) , which call appears in the assay record?
NO

For this compound, state the assay outcome: COc1ccc(S(=O)(=O)NCCNc2nccc(-c3c(-c4cccc([N+](=O)[O-])c4)nc4sccn34)n2)cc1
NO

Lab log entry: O=S(=O)(Nc1ccc(F)c(Cl)c1)c1ccc(-c2cnc(C3CC3)o2)cc1 — outcome as called in the assay?
NO

Test call for this compound, please: CCCCCCCCCCCCS(=O)CC(C)O (configuration not stated)
NO

Look up the recorded call for Cc1nc2nc(N)nc(N)c2nc1C in this test.
NO

# fetch the recorded call for CC1=C(NCCN2CCCC2)C(=O)c2c(OCc3ccc(F)c(Cl)c3)cccc2C1=O here
NO

What call does the record list for O=C(Nc1ccc(CN2CCOCC2)cc1)c1[nH]ncc1Nc1ncnc2sccc12 ?
YES

Short answer needed: outcome of this test for Cc1cc2cc3cc(C)c(N(C)C)cc3nc2cc1N(C)C ?
NO

GET /call?item= CS(CCCCN=C=S)=NC(=O)c1c(F)c(F)c(F)c(F)c1F (configuration not stated) returns the recorded outcome of this test.
NO

Look up the recorded call for N=S(=O)(NC(=O)c1ccc(Cl)cc1Cl)c1ccc(Br)s1 (configuration not stated) in this test.
NO

Call for entry O=C1c2cc3c(cc2-c2c1c1cc(F)c(F)cc1c(=O)n2C[C@H](O)CO)OCO3 :
YES

Call for entry COc1ccc(S(=O)(=O)NCCCNc2nccc(-c3c(-c4cccc(N)c4)nc4sccn34)n2)cc1 :
NO

Per the records of this test, what outcome belongs to C=C1C(=O)O[C@H]2[C@H]1CC/C(Cn1cc(Cn3ccc4ccccc43)nn1)=C\CC[C@@]1(C)O[C@@H]21 ?
YES

How was NS(=O)(=O)c1ccc(-n2ncc3c(=O)[nH]c(CN4CCN(c5cc6c(cc5F)c(=O)c(C(=O)O)cn6C5CC5)CC4)nc32)cc1 classified in this test?
NO

Lab log entry: C#Cc1nc(Nc2cc(C)[nH]n2)c2ccccc2n1 — outcome as called in the assay?
YES

Could you kindly confirm the outcome this assay logged for O=c1ccc2cc3ccccc3cc2[nH]1 ?
NO

Status in this test for O=C(CN1CCN(c2cc3c(cc2F)c(=O)c(C(=O)O)cn3C2CC2)CC1)Nc1cc(=O)[nH]c(=O)[nH]1 ?
NO

// outcome(item) with item = COc1ccc2nc3cc(Cl)ccc3c(N3CCN(c4nccc(NCc5ccccc5)n4)CC3)c2c1
NO

Can you look up the reported call for CCN(CC)CCCC(C)NCCCNc1cccc2cccnc12 (configuration not stated) for me?
NO

Kindly provide the recorded test outcome for the following compound: COc1ccc(CNc2nccnn2)cc1
NO

# fetch the recorded call for COc1ccc2nc3cc(Cl)ccc3c(N3CCN(c4ccnc(N5CCOCC5)n4)CC3)c2c1 here
YES

# lookup: test call for CCN(C(=O)CN1CCN(c2cc3c(cc2F)c(=O)c(C(=O)O)cn3CC)CC1)c1nc(-c2ccccc2)cs1
NO

Assay outcome for COc1c(Cl)cc(Cl)cc1Cl : what was it?
NO

Which outcome was assigned to Oc1cc(O)c2c(=S)cc(-c3ccc(Cl)cc3)oc2c1 in this test?
NO

Would you mind telling me which call this test gave O=C1c2ccccc2-c2nccc3cc(Cl)nc1c23 ?
YES

Name the outcome recorded for CCCCCCCCCc1cc(CN2CCCCC2)c(O)c(CN2CCCCC2)c1 in the assay.
NO

What did the test return for COc1ccccc1/C=C(/C(=O)c1ccccc1)c1ccccc1 ?
NO

Returns: the outcome recorded for CC(C)(C)n1cc(-c2ccnc(NCCNS(=O)(=O)c3ccccc3)c2)c(-c2cccc(O)c2)n1 in this assay.
NO

// param item: C[C@@]1(N2C(=O)OC[C@@H]2c2ccccc2)C(=O)N([C@H](CC(=O)N2CCC(N3CCCCC3)CC2)C(=O)NCc2cccc(C(F)(F)F)c2)[C@@H]1/C=C/c1ccccc1 ; yields the recorded call
NO

Returns: the outcome recorded for COC1C/C(=N\O)C2OC(c3ccccc3)OCC2O1 (configuration not stated) in this assay.
NO
